pKi values for Glutamate receptor 4 (Homo sapiens, UniProt P48058) compiled from several publications are listed below.
pKi: −log10 of the molar value.
OUTCOME MEASURE: pKi

CCCn1nnc(-c2onc(O)c2CC(N)C(=O)O)n1 (stereo not given) ... 6.14

P. CC(C)/C=C(/C[C@H](N)C(=O)O)C(=O)O
Q. N[C@@H](Cn1nc(I)c(=O)[nH]c1=O)C(=O)O
stdin: Quick check, higher pKi between P and Q ? Record your answer as the label of the chosen record.
stdout: Q
(Q: 7.70, P: 4.99)

1. N[C@@H](Cn1ncc(=O)[nH]c1=O)C(=O)O
2. CCC(CC)=C(C[C@H](N)C(=O)O)C(=O)O
stdin: Quick check, higher pKi between 1 and 2 ? Record your answer as the label of the chosen record.
stdout: 1
